Target: human 5HT2A receptor (Homo sapiens)
Sequence (P28223 whole entry): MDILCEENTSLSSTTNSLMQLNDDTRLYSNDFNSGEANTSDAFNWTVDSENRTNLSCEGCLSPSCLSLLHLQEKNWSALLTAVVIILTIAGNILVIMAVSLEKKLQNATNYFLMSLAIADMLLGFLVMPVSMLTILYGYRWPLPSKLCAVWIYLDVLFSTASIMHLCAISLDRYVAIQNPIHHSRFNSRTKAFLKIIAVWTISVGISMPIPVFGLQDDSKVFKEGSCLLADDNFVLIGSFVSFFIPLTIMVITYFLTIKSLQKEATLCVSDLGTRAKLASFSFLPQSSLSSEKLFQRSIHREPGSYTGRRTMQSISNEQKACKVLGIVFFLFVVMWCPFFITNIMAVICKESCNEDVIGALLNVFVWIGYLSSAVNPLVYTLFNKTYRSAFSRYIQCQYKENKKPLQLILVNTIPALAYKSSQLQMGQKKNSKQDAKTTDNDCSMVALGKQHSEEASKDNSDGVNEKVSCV
Threshold check on Ki: strictly below 3 nM is rule met; on or above 3 nM is rule not met.

compound	category.label
CN1CCC(N(Cc2ccc(F)cc2)Cc2cc(-c3ccc4[nH]ncc4c3)co2)CC1	rule met
CC(C)Oc1cccc(C(=O)N(Cc2cc(-c3ccc4[nH]ccc4c3)ccc2F)C2CCN(C)CC2)c1	rule not met
CN1CCC(N(Cc2cc(-c3ccc4[nH]ncc4c3)ccc2F)C(=O)c2ccc(F)cc2)CC1	rule met
O=C(c1ccc(F)cc1)N(CCN1CCCC1)Cc1cc(-c2ccc3[nH]nnc3c2)ccc1F	rule met
CN1CCC(N(Cc2cccc(-c3ccc4[nH]ccc4c3)c2)C(=O)c2ccc(F)cc2)CC1	rule met
CN1CCN(Cc2cc(-c3ccc4[nH]ccc4c3)ccc2F)C(c2ccccn2)C1 (centres unmarked)	rule not met
CN1CCN(Cc2cccc(-c3ccc4[nH]c(=O)oc4c3)c2)CC1	rule not met
CN(C)CCN(Cc1ccccc1)Cc1cccc(-c2cnc3c(c2)OCC(=O)N3)c1	rule not met

====

Target: human 5HT2A receptor (Homo sapiens)
Structures can show the parent of a compound that is named as a salt.
Decision: Ki beneath 2 nM gives Fulfilled; Ki meeting or exceeding 2 nM gives Not fulfilled.

molecule	category.label
CN1CCC(N(Cc2cc(-c3ccc4[nH]ccc4c3)ccc2F)C(=O)c2ccncn2)CC1	Not fulfilled
Fc1ccc(CN(Cc2cc(-c3ccc4[nH]nnc4c3)ccc2F)C[C@H]2CCCN2)cc1 [Example 80, trihydrochloride]	Not fulfilled
CN(C)CCN(Cc1cc(-c2ccc3[nH]c(=O)oc3c2)ccc1F)C(=O)c1ccc(F)cc1	Fulfilled
O=C(c1ccc(F)cc1)N(Cc1cc(-c2ccc3[nH]c(=O)oc3c2)ccc1F)C1CN2CCC1CC2 (centres unmarked)	Fulfilled
CN1[C@@H]2CC[C@H]1C[C@H](N(Cc1cc(-c3ccc4[nH]ncc4c3)ccc1F)C(=O)c1ccc(F)cc1)C2	Fulfilled
CNCCN(Cc1ccc(F)cc1)Cc1cc(-c2ccc3[nH]nnc3c2)ccc1F	Fulfilled
O=c1[nH]c2ccc(-c3ccc(F)c(CN4CCNCC4c4cccs4)c3)cc2o1 (centres unmarked)	Fulfilled
CN1CCN(Cc2cc(-c3ccc4[nH]ccc4c3)ccc2F)C(c2ccco2)C1 (centres unmarked)	Fulfilled
CN1CCC(N(Cc2cc(-c3ccc4[nH]c(=O)oc4c3)ccc2F)C(=O)c2ccc(F)cc2)CC1	Fulfilled
CC(=O)O.CN1CCN(Cc2cncc(-c3ccc4[nH]ccc4c3)c2)[C@@H](c2ccc(F)cc2)C1	Fulfilled
CN(C)CCN(Cc1cccc(-c2ccc3[nH]c(=O)oc3c2)c1)C(=O)c1ccc(Cl)cc1	Fulfilled
CN1CCCN(Cc2cccc(-c3ccc4[nH]ccc4c3)c2)CC1	Not fulfilled
CC(=O)O.CN1CCN(Cc2cncc(-c3ccc4[nH]c(=O)oc4c3)c2)[C@@H](c2ccc(F)cc2)C1	Fulfilled
Fc1ccc([C@H]2CNCCN2Cc2cc(-c3ccc4[nH]ccc4c3)co2)cc1	Not fulfilled
CN1CCN(Cc2cc(-c3ccc4[nH]ccc4c3)ccc2F)C(c2cccnc2)C1 (centres unmarked)	Not fulfilled
CC(=O)O.CN1CCN(Cc2cc(-c3ccc4[nH]c(=O)oc4c3)co2)[C@@H](c2ccc(F)cc2)C1	Fulfilled
O=C(c1ccc(F)cc1)N(Cc1cc(-c2ccc3[nH]ccc3c2)ccc1F)[C@H]1CN2CCC1CC2	Fulfilled
CN1CCC(N(Cc2cc(-c3ccc4[nH]ccc4c3)co2)C(=O)c2ccc(F)cc2)CC1	Not fulfilled
CN1CCC(N(Cc2ccc(F)cc2)Cc2cc(-c3ccc4[nH]nnc4c3)ccc2F)CC1 [Example 88, hydrochloride]	Fulfilled
CN(C)CCN(Cc1ccccc1)Cc1cccc(-c2ccc3[nH]ccc3c2)c1	Not fulfilled
CN1CCN(Cc2cccc(-c3ccc4[nH]nnc4c3)c2)CC1	Not fulfilled
CN(C)CCN(Cc1ccccc1)Cc1cccc(-c2ccc3[nH]c(=O)sc3c2)c1	Not fulfilled
CN(C)CCN(Cc1ccccc1)Cc1cccc(-c2ccc3[nH]ncc3c2)c1	Not fulfilled
Fc1ccc(-c2ccc3[nH]ncc3c2)cc1CN1CCNCC1c1cccs1 (centres unmarked)	Fulfilled
CN(C)CCN(Cc1cccc(-c2ccc3[nH]c(=O)sc3c2)c1)C(=O)c1ccccc1	Fulfilled
CCN1CCCC1CN(Cc1cc(-c2ccc3[nH]c(=O)oc3c2)ccc1F)C(=O)c1ccc(F)cc1 (centres unmarked)	Fulfilled
CN1CCN(Cc2cc(-c3ccc4[nH]cc(C#N)c4c3)ccc2F)[C@@H](c2ccc(F)cc2)C1	Not fulfilled
O=C(c1ccc(F)cc1)N(Cc1cc(-c2ccc3[nH]ncc3c2)ccc1F)[C@H]1CN2CCC1CC2	Fulfilled
O=C(c1ccc(F)cc1)N(CCN1CCCC1)Cc1cc(-c2ccc3[nH]ncc3c2)ccc1F	Fulfilled
